tested on: A375-XP cells (Vemurafenib-resistant); test: Kinase inhibitor library screening, PrestoBlue cell viability, 1 or 10 μM, 72 h; conditions: A375 XP, 1μΜ, 72 h; in %
We label by threshold. Values of cell viability, A375 XP, 1μΜ strictly beneath 100 are Fulfilled. Values of 100 and up are Not fulfilled.

{"columns": ["molecule", "system", "answer label"],
 "data": [
  ["COc1cc2ncnc(Nc3ccc(F)c(Cl)c3)c2cc1NC(=O)/C=C/CN1CCCCC1", "A375-XP cells (Vemurafenib-resistant)", "Fulfilled"],
  ["CNC(=O)c1c(F)cccc1Nc1nc(Nc2cc3c(cc2OC)CCN3C(=O)CN(C)C)nc2[nH]ccc12 [GSK1838705A, reference compound]", "A375-XP cells (Vemurafenib-resistant)", "Fulfilled"],
  ["CNC(=O)c1ccccc1Nc1nc(Nc2ccc(N3CCOCC3)cc2OC)ncc1Cl", "A375-XP cells (Vemurafenib-resistant)", "Fulfilled"],
  ["O=C(NOCC1CC1)c1ccc(F)c(F)c1Nc1ccc(I)cc1Cl", "A375-XP cells (Vemurafenib-resistant)", "Fulfilled"],
  ["O=C(NOCC(O)CO)c1cc(Br)c(F)c(F)c1Nc1ccc(I)cc1F (stereo not shown)", "A375-XP cells (Vemurafenib-resistant)", "Fulfilled"],
  ["CC(C)(C)c1cc(/C=C(\\C#N)C(N)=S)cc(C(C)(C)C)c1O", "A375-XP cells (Vemurafenib-resistant)", "Not fulfilled"],
  ["CN(c1ncccc1CNc1nc(Nc2ccc3c(c2)CC(=O)N3)ncc1C(F)(F)F)S(C)(=O)=O", "A375-XP cells (Vemurafenib-resistant)", "Not fulfilled"],
  ["Nc1ncnc2c1c(-c1cccc(OCc3ccccc3)c1)cn2C1CC(CN2CCCC2)C1 (stereo not shown)", "A375-XP cells (Vemurafenib-resistant)", "Fulfilled"],
  ["C[C@@H]1CCN(C(=O)CC#N)C[C@@H]1N(C)c1ncnc2[nH]ccc12", "A375-XP cells (Vemurafenib-resistant)", "Not fulfilled"]
]}
